- Test system: SNB-19
- assay method text: NCI tumour cell line growth inhibition, 48 h
Calls of active or inactive are those of the source. Rule as the data show it: active = GI50 up to about 1.1 µM and inactive = higher.
Reply using exactly one outcome from Yes = active, No = inactive

Example entries and their recorded answers appear below.
compound: Nc1cc2c(c3ccccc13)C(CCl)CN2C(=O)c1cc2cc(NC(=O)c3cc4ccccc4o3)ccc2[nH]1 (stereo not given)
assigned category: Yes
//
compound: COC(=O)CCCC(=O)NC1=C(NCc2ccccc2)C(=O)c2ccccc2C1=O
assigned category: No
//
compound: CCCCC(=O)Nc1ccc2cc(C(=O)OC)c(ON3C(=O)c4ccccc4C3=O)nc2n1
assigned category: No

Given `COc1ccc(Cn2c(C)nc3c2C(=O)c2ccccc2C3=O)cc1` , state the outcome it received in this test.
No

State the result this test recorded for `Nn1c(=O)n(Cc2ccccc2)n(-c2ccccc2)c1=O` .
No

Called result for O=C1c2[nH]c3ccccc3c2CCN2CCCCC12 (stereo not given)
No

Each compound tested received a call. Report the one for COc1c(CC=C(C)C)c(O)c(C(CC(C)C)c2c(O)c(CC=C(C)C)c(O)c(C(C)=O)c2O)c(O)c1C(C)=O (stereo not given) .
No

For this compound, state the assay outcome: `c1cc(Sc2nc(Sc3ccncc3)nc(Sc3ccncc3)n2)ccn1`
No

Answer briefly: the call reported for `O=C(/C=C/c1ccccc1)CCC1C(=O)NC(=S)NC1=O` in this assay.
No

How was `CCN(CC)c1ccc2cc(C(=O)Nc3ccccc3)c(=N)oc2c1` classified in this test?
No

----------
- Test system: NCI/ADR-RES
- assay method text: NCI tumour cell line growth inhibition, 48 h
Active and inactive are the calls of the source. Cut-off read from the data, not from the text of the source: active = GI50 up to about 1.1 µM and inactive = higher.
The categories you may choose from are yes (1) for active, no (0) for inactive

Examples with answers:
compound: CCCC(=O)Nc1cc(C(=O)N2C[C@H]3C[C@@]34C2=CC(=O)c2[nH]cc(C)c24)n(COC)c1
assigned category: yes (1)
//
compound: COC(=O)/C(C#N)=C1\NC(=O)CC(c2ccccc2)C1C#N (stereo not drawn)
assigned category: no (0)
//
compound: O=C(N/C(=C\c1ccccc1)c1nc2ccccc2c(=O)o1)c1ccccc1
assigned category: no (0)
//
compound: CC(=O)c1cccc(NC(=O)/C(=N\NC(=S)NN)C2C(=O)Nc3ccccc3[S+]2[O-])c1 (stereo not drawn)
assigned category: no (0)
//
compound: COc1ccc2c3c1O[C@H]1C(O)CCC4(O)[C@@H](C2)NCC[C@]314 (stereo partly drawn)
assigned category: no (0)

Let's switch to this compound now.
Would you mind telling me which call this test gave `O=Cc1c2ccccc2n2ccc3c4ccccc4[nH]c3c12` ?
no (0)

----------
# GI50 listing for each entry below
- Test system: LOX IMVI
- assay method text: NCI tumour cell line growth inhibition, 48 h
Active and inactive are the calls of the source. Cut-off read from the data, not from the text of the source: active = GI50 up to about 1.1 µM and inactive = higher.

Solved cases (2 shown):
compound: Cc1ccc(NC(=O)/C(CC(=O)c2c[n+]([O-])c3ccccc3[n+]2[O-])=N\NC(=O)C[n+]2ccccc2)cc1
GI50: > 100 µM (inactive)
//
compound: COc1c(O)cc2ccnc3c2c1N(C)C=C3
GI50: > 100 µM (inactive)

# GI50 lookup, item `NCc1nnn(Cc2ccccc2)c1N`
> 100 µM (inactive)

Looking for the measured GI50 of Cc1ccc(/C=N\NC2c3cc(Cl)ccc3Nc3nc(O)nc(C)c32)cc1 (stereo unspecified) , can you help?
> 100 µM (inactive)
